# Study system: bovine serum albumin (BSA) (Bos taurus)
# Construct: gene ALB; commercial native serum albumin (Sigma Aldrich, named for the FT-IR work), mature protein 583 residues, no tags
# Sequence (P02769 25-607): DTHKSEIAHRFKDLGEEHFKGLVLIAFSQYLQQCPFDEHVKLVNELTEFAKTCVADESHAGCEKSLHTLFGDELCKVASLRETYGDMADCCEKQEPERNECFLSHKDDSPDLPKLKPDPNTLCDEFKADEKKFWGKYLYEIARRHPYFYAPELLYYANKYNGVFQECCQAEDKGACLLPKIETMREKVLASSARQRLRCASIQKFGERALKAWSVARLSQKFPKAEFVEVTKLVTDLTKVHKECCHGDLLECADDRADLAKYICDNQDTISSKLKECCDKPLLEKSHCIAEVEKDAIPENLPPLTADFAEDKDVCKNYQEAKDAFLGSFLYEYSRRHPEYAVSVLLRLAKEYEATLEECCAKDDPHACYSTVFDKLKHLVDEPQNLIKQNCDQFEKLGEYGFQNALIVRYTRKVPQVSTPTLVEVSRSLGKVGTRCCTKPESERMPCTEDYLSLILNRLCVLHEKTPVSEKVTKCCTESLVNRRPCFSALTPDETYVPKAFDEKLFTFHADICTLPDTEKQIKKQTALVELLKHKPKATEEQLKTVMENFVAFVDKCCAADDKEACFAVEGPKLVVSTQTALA
# Experiment summary: intrinsic fluorescence quenching (ex […] nm)
# Format: binding
# Assay conditions: […] K, pH […] BSA; static quenching; n about […]; subdomain IIIA by site markers; double-log
Observed property: Binding / Kb × 10^4 [dm^3mol^-1]

Input: For the molecule CCCCn1c(C)c2c(OCc3nn(CN4CCN(c5ccccc5)CC4)c(=S)n3C)nn(C)c(=O)c2c1C , what Binding / Kb × 10^4 [dm^3mol^-1] is on record?
Output: 8.91 × 10^4 dm^3 mol^-1

Input: For the molecule CCCCn1c(C)c2c(OCc3nn(CN4CCN(c5cccc(C(F)(F)F)c5)CC4)c(=S)n3-c3ccc(OC)cc3)nn(C)c(=O)c2c1C , what Binding / Kb × 10^4 [dm^3mol^-1] is on record?
Output: 9.33 × 10^4 dm^3 mol^-1

Input: For the molecule CCCCn1c(C)c2c(OCc3nn(CN4CCN(c5cccc(C(F)(F)F)c5)CC4)c(=S)n3-c3ccccc3)nn(C)c(=O)c2c1C , what Binding / Kb × 10^4 [dm^3mol^-1] is on record?
Output: 5.75 × 10^4 dm^3 mol^-1

Input: For the molecule CCCCn1c(C)c2c(OCc3nnc(SCC(=O)N4CCN(c5ccccc5)CC4)n3C)nn(C)c(=O)c2c1C , what Binding / Kb × 10^4 [dm^3mol^-1] is on record?
Output: 4.68 × 10^4 dm^3 mol^-1
